# System: SNRK
# run_conditions: concentration: 1 μM, replicates: in singlicate; n = 1
result_type: %Inh (%)
Give the number; % is assumed, so skip it.

- compound: "O=C1NC(=O)C(c2ccc(Cl)cc2)=C1Nc1ccc(O)cc1"
  target: "SNRK"
  display_unit: "%"
  numeric_value: 0
- compound: "Cc1c(Cn2c(C)c(C)n3c(=O)cc(N4CCOCC4)nc23)cccc1C(F)(F)F"
  target: "SNRK"
  display_unit: "%"
  numeric_value: 0

API: value(readout= %Inh, system= SNRK, query= O=c1cc(N2CCOCC2)nc2n(Cc3ccccc3F)ccn12 )
0

What is its %Inh for SNRK? Entry: Cc1ccc(-c2nc(Nc3ccncc3)c3ccccc3n2)s1
3

Which %Inh is reported with SNRK for this entry: CNCc1ccc2nc(NC(=O)c3ccc(C(C)(C)C)cc3)cn2c1 ?
20

What is its %Inh for SNRK? Entry: COC(=O)c1cccc(NC(=O)NC2CCN(c3ccnc(Nc4ccc(OC)cc4)n3)C2)c1 (stereo not shown)
0

Param readout = %Inh; param system = SNRK; param query = Cc1cnc(N)c(/C=C/c2cncc(C(=O)NCCc3ccc(Cl)cc3Cl)c2)c1.Cl ; response: value;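 also: KINOMEscan kinase panel screen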
0
